biological target: human protein kinase CK2 (holoenzyme) (Homo sapiens, UniProt P68400); construct: gene CSNK2A1; CK2 holoenzyme, recombinant, expressed in E. coli; with CK2 regulatory subunit beta (CSNK2B), as part of the holoenzyme; test: capillary electrophoresis-based kinase activity assay, peptide substrate RRRDDDSDDD; assay type: biochemical
Sequence (P68400 whole entry): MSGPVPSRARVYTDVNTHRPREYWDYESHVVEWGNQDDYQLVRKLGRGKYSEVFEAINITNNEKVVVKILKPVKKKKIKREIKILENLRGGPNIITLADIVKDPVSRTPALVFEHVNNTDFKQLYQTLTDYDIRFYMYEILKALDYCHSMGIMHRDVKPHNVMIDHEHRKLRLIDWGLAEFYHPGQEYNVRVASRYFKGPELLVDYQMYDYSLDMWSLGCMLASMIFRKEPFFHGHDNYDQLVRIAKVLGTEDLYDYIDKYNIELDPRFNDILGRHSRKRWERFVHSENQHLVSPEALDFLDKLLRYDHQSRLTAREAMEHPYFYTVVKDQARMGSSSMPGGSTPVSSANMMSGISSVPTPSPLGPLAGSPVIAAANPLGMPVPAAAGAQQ
Sequence (P67870 2-215 partner): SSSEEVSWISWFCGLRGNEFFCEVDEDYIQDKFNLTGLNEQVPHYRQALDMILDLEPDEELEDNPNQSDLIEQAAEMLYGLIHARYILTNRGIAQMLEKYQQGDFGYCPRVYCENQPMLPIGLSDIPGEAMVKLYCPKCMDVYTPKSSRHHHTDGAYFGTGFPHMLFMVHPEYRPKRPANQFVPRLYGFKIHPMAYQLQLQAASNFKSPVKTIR
OBSERVATION TYPE: IC50 (µM)
Provide only the numeric value, understood in µM.

(Q) Item `COC1=CC(=O)c2c(c(O)c3oc4cc(OC)cc(C)c4c(=O)c3c2O)C1=O` has what recorded IC50?
(A) 1.24
